# Tested on: SK-MEL-2 melanoma
# Procedure Summary: NCI tumour cell line growth inhibition, 48 h

Item Smiles	GI50
N#Cc1cccc(OCc2nc(N)nc(N)c2-c2ccc(Cl)c(Cl)c2)c1	6.68 µM
Cc1cc2cc3cc(C)c(N(C)C)cc3[n+](C)c2cc1N(C)C	4.57 µM
O=c1cc(-c2ccccc2)oc2cc(O)c(O)c(O)c12	53.9 µM
Nc1ncnc2c1ncn2Cc1ccc(C23CC4CC(CC(C4)C2)C3)c(OCc2cc(F)c(F)cc2F)c1	> 100 µM
Cn1cc(C2=C(c3cn(CCO)c4ccccc34)C(=O)NC2=O)c2ccccc21	1.65 µM
O=c1c2c3c(sc2n2c(-c4cc(-c5ccccc5)no4)nnc2n1Cc1ccccc1)CCCC3	4 µM
Clc1ccc(/C=C/c2cc(N3CCOCC3)c3cc(Cl)c(Cl)cc3n2)cc1	> 100 µM
O=C(Nc1ccc(F)cc1)Nc1ccccc1CNc1nc(Nc2ccc(OCCN3CCCC3)cc2)ncc1Cl	8.7 µM
Fc1ccc(-c2nn3c(-c4ccc(F)c(Cl)c4)nnc3s2)cc1	> 50 µM
CCCCOc1ccc(NC(=O)n2nc(N)c3ccccc32)cc1	27.8 µM

Source: PubChem BioAssay (NCI)
